# Tested on: RXRa homodimer (NR concentration 180 nM)
# test.method.notes: PBM binding z-score (relative to random genomic background probes); higher = stronger binding; sequences stand for … in GC…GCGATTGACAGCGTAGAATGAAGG
Each record here notes measured PBM binding z-score.
quantity.kind: PBM binding z-score

> print(dat)
                macromolecule.sequence  measurement
 1  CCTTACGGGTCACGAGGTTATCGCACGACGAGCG         7.47
 2  ATATGTAGGTTATCGGGTCAATCAGTTTGCGCAT         3.75
 3  TATAGTTGGTCACGGAGGTCACACACGACGGGTA         5.16
 4  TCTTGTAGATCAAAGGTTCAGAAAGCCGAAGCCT         1.29
 5  ATCTCTAGGTAGCAAGTTCAGTGAAAGAGAGGAC        0.352
 6  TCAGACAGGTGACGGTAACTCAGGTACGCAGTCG         0.84
 7  TTACCAAGGTGAAAGGTCGTAGATGCACGCCTTG         6.49
 8  TGTCAAAGTTGAAAGGTAACGTAAGTATCCACAC         2.69
 9  ATTTCTAGGTAACCAAGTTCAGTGAATGCCGAAC        0.621
10  TGTCAAAGTTCAAAGGTAACGGAAGTATCCACAC         7.52
11  CAAACTAGGTCACTGAGGTCAAAGTCCGTGCGTA         6.35
12  ATCTCTAGGTAGAGATAGTTCAGTGAATGCAAAT        0.115
13  TGAATGAGGCTATAAGATCAGGGAACGTTGCAAA      -0.0491
14  CCGAGTAGGTTATGGAGCATTCAGGCAACGGTGA        0.308
15  CCTTACGGGTCTCGAGGTTATAGCACGACGAGCG         1.27
16  GATACATGGTCAAGGCCAGAGTACGCGTATTGAT        0.439
17  TCTTGTAGATCATTAGAGGTTAAGAAAGTGCGCT         1.42
18  TGTCACAGTTCAAAGGTAACGTAAGTATCCACAC         4.82
19  CTACCAAGGTGAACAAGATCGTTGATTACTATTC        0.874
20  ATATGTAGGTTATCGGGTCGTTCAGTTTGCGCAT         1.57
21  CGAACTAGGTCAGACCAGGACAGTGAAGGATGAT         1.51
22  TATGCAGGGTCAAAGGCCAGAGTACGAATGTCGA         6.81
23  TCTCGGAGGACACGAAGGTCACAGCTTTCCAGAG         3.74

Values compiled from the supplement of paper PMC6555819.
